- Species on record: Cavia porcellus
- experiment-notes: Evaluated for in vitro antiplatelet activity against guinea pig platelet rich plasma aggregated by […] (ADP)
- Assay type: functional
result-type: IC50 (µM)

Illustrative cases are given below, each with its answer.
{"molecule": "c1ccc2c(c1)OC(N1CCCC1)c1cnc(N3CCOCC3)nc1-2 (centres undefined)", "IC50 / µM": 250}
{"molecule": "c1ccc2c(c1)OC(N1CCCC1)c1cnc(N3CCCC3)nc1-2 (centres undefined)", "IC50 / µM": 200}

P = CSc1ncc2c(n1)-c1ccccc1OC2N1CCCC1 (centres undefined)
Q = Nc1ncc2c(n1)-c1ccccc1OC2N1CCCC1 (centres undefined)
Which gives the smaller IC50 number: P or Q ? API: response body contains the label of the selected item.
P
